target or system: human D2LR (Homo sapiens (Human), UniProt P14416)
Sequence (P14416 whole entry): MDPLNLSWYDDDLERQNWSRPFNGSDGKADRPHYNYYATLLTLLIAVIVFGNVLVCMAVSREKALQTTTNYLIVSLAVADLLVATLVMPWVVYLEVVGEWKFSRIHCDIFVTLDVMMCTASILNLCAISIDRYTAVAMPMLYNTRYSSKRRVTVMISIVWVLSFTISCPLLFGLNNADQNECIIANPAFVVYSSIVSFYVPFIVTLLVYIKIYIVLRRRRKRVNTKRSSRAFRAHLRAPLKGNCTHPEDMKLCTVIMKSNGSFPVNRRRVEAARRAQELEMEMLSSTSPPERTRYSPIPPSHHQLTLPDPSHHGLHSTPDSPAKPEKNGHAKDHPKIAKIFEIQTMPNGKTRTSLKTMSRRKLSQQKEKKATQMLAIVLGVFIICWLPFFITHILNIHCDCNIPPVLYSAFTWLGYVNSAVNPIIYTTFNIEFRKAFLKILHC
measurement protocol: Radioligand competition binding vs. [3H]-(R)-(+)-7-OH-DPAT, hD2R
measurement setup: vs. [3H]-(R)-(+)-7-OH-DPAT; HEK293 cells stably expressing hD2R; read-out: D2R Ki ± SEM
quantity: pKi
The quantity pKi is defined as the negative base-10 logarithm of the molar concentration.

CCCN1CCO[C@@H]2c3cc(O)ccc3OC[C@H]21 [(+)-PD128,907, reference compound] = 7.69
C[C@H]1CO[C@@H](c2ccc(N)nc2)CN1C/C=C1\CCC(CNC(=O)c2cc3ccccc3[nH]2)C1 (stereo partly shown) [FOB04-02] = 7.25
C[C@H]1CO[C@H](c2ccc(N)nc2)CN1CC1CC1CNC(=O)c1cc2ccccc2[nH]1 (stereo partly drawn) [cis-FOB01-60A] = 4.95
C[C@H]1CO[C@@H](c2ccc(N)nc2)CN1CC(O)CCNC(=O)c1cc2ccccc2[nH]1 (stereo partly shown) [FOB02-67] = 6.00
C[C@H]1CO[C@@H](c2ccc(N)nc2)CN1CC(=O)N1CCC(CNC(=O)c2cc3ccccc3[nH]2)C1 (stereo partly shown) [AB07-80] = 5.74

The reported value for C[C@H]1CO[C@@H](c2ccc(N)nc2)CN1CC1CC1CNC(=O)c1cc2ccccc2[nH]1 (stereo partly drawn) [trans-AB05-27A] in terms of pKi is 6.67

Item: C[C@H]1CO[C@@H](c2ccc(N)nc2)CN1CC1CC1CNC(=O)c1cc2ccccc2[nH]1 (stereo partly drawn) [cis-FOB01-59B] | pKi: 6.92

----------
Entries and their D4R/D3R values follow.
target or system: human D3R (Homo sapiens (Human), UniProt P35462)
Sequence (P35462 whole entry): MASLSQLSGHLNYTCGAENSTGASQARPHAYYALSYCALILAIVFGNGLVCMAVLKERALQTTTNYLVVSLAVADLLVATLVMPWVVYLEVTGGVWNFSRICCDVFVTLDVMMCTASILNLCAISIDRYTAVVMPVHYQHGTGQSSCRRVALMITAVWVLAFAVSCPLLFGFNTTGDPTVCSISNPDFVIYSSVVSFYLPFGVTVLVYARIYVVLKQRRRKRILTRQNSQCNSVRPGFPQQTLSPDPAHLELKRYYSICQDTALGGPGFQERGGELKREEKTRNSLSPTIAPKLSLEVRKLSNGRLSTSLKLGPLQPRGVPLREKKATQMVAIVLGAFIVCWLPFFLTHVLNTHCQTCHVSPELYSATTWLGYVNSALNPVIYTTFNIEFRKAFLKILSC
measurement protocol: Radioligand competition binding vs. [3H]-(R)-(+)-7-OH-DPAT, hD3R
measurement setup: ratio of Ki, vs. [3H]-(R)-(+)-7-OH-DPAT
Number only, please.

// below: answered compounds
CCCN1CC(c2ccc(N)nc2)OC[C@@H]1C (stereo partly shown) [AB03-02, reference compound] = 1.58
CCCN1CCO[C@@H]2c3cc(O)ccc3OC[C@H]21 [(+)-PD128,907, reference compound] = 15.7

Let us move to another entry and its D4R/D3R.
Item C[C@H]1COC(c2ccc(N)nc2)CN1CCCCOc1ccc2c(c1)NC(=O)CC2 (stereo partly shown) was tested on human D3R (Homo sapiens (Human), UniProt P35462); the reported D4R/D3R is 18.6

----------
target or system: UniProt:P14416
measurement protocol: Radioligand competition binding vs. [3H]-(R)-(+)-7-OH-DPAT, hD2R
measurement setup: vs. [3H]-(R)-(+)-7-OH-DPAT; HEK293; read-out: hD2LR Ki ± SEM
quantity: Ki (nM)
Number in nM, nothing else.

Per the records, this molecule ( CCCN1CC(c2ccc(N)nc2)OC[C@@H]1C (stereo partly shown) [AB03-02, reference compound] ) has Ki equal to 1740

----------
target or system: human D3R (Homo sapiens (Human), UniProt P35462)
measurement protocol: Radioligand competition binding vs. [3H]-(R)-(+)-7-OH-DPAT, hD3R
measurement setup: vs. [3H]-(R)-(+)-7-OH-DPAT; HEK293 cells stably expressing hD3R; listed as AB05-27B; read-out: D3R Ki ± SEM
quantity: Ki (µM)
Form entry: value (µM) — number only.

Input C[C@H]1CO[C@@H](c2ccc(N)nc2)CN1CC1CC1CNC(=O)c1cc2ccccc2[nH]1 (stereo partly drawn) [trans-AB05-27B] . Output Ki: 0.404

----------
target or system: hμOR (Homo sapiens (Human), UniProt P35372)
Sequence (P35372 whole entry): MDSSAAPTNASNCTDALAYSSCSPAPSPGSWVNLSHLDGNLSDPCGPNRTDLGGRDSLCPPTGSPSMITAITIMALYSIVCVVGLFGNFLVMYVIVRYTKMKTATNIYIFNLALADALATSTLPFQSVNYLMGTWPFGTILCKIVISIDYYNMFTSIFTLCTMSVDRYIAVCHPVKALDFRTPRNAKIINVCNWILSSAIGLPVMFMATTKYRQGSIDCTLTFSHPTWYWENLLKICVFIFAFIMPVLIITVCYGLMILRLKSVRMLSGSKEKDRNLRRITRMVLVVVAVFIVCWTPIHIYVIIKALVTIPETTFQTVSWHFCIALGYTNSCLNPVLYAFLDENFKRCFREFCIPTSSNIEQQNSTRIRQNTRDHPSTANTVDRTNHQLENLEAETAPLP
measurement protocol: Off-target competition binding vs. [3H]-DAMGO, hμOR
measurement setup: vs. [3H]-DAMGO; HEK293 membranes; >100 = <50% inhibition at 100 μM; read-out: hμOR Ki ± SEM
quantity: Ki (µM)
Entry rule: numbers only, all in µM.

The molecule C[C@H]1CO[C@@H](c2ccc(N)nc2)CN1CC(O)CCNC(=O)c1cc2ccccc2[nH]1 (stereo partly shown) showed Ki equal to 0.739

----------
target or system: human D3R (Homo sapiens (Human))
measurement protocol: Radioligand competition binding vs. [3H]-(R)-(+)-7-OH-DPAT, hD3R
measurement setup: vs. [3H]-(R)-(+)-7-OH-DPAT; HEK293 cells stably expressing hD3R; read-out: D3R Ki ± SEM
Listing of entries alongside the reported Ki.
Give the quantity in nM, number only.

Known results for compounds:
C[C@H]1CO[C@@H](c2ccc(N)nc2)CN1CC1CC1CNC(=O)c1cc2ccccc2[nH]1 (stereo partly drawn) [cis-FOB01-59B] = 276
C[C@H]1COC(c2ccc(N)nc2)CN1CCCCOc1ccc2c(c1)NC(=O)CC2 (stereo partly drawn) = 173
C[C@H]1CO[C@@H](c2ccc(N)nc2)CN1CC1CC1CNC(=O)c1cc2ccccc2[nH]1 (stereo partly drawn) [trans-AB05-27A] = 1190
C[C@H]1CO[C@@H](c2ccc(N)nc2)CN1CC(=O)N1CCC(CNC(=O)c2cc3ccccc3[nH]2)C1 (stereo partly drawn) = 2010
CCCN1CC(c2ccc(N)nc2)OC[C@@H]1C (stereo partly drawn) [AB03-02, reference compound] = 185
C[C@H]1CO[C@H](c2ccc(N)nc2)CN1CC1CC1CNC(=O)c1cc2ccccc2[nH]1 (stereo partly drawn) [cis-FOB01-60B] = 32900
C[C@H]1CO[C@H](c2ccc(N)nc2)CN1CC1CC1CNC(=O)c1cc2ccccc2[nH]1 (stereo partly drawn) [cis-FOB01-60A] = 26200
C[C@H]1CO[C@@H](c2ccc(N)nc2)CN1CC1CC1CNC(=O)c1cc2ccccc2[nH]1 (stereo partly drawn) [trans-AB05-27B] = 404

// assay human D3R (Homo sapiens (Human)), entry CCCN(CCC)c1ccc(C2CN(CCC)[C@@H](C)CO2)cn1 (stereo partly drawn) , Ki value = 21100

Kindly note: human D3R (Homo sapiens (Human)), C[C@H]1CO[C@@H](c2ccc(N)nc2)CN1C/C=C1\CCC(CNC(=O)c2cc3ccccc3[nH]2)C1 (stereo partly drawn) , Ki value reported: 7.41

Ki of CCCN1CCO[C@@H]2c3cc(O)ccc3OC[C@H]21 [(+)-PD128,907, reference compound] , assay on human D3R (Homo sapiens (Human)), is 1.69

Simply: C[C@H]1CO[C@@H](c2ccc(N)nc2)CN1CC(O)CCNC(=O)c1cc2ccccc2[nH]1 (stereo partly drawn) , human D3R (Homo sapiens (Human)), Ki = 423

----------
target or system: human D3R (Homo sapiens (Human))
measurement protocol: Radioligand competition binding vs. [3H]-(R)-(+)-7-OH-DPAT, hD3R
measurement setup: ratio of Ki, vs. [3H]-(R)-(+)-7-OH-DPAT; D3R selectivity over D2R
quantity: D2R/D3R
Respond with the number and no other words.

Study these solved cases before continuing.
CCCN(CCC)c1ccc(C2CN(CCC)[C@@H](C)CO2)cn1 (stereo partly drawn) = 0.391
C[C@H]1CO[C@@H](c2ccc(N)nc2)CN1CC1CC1CNC(=O)c1cc2ccccc2[nH]1 (stereo partly drawn) [trans-AB05-27B] = 1.75
C[C@H]1CO[C@H](c2ccc(N)nc2)CN1CC1CC1CNC(=O)c1cc2ccccc2[nH]1 (stereo partly drawn) [cis-FOB01-60A] = 0.431
C[C@H]1COC(c2ccc(N)nc2)CN1CCCCOc1ccc2c(c1)NC(=O)CC2 (stereo partly drawn) = 0.653
C[C@H]1CO[C@@H](c2ccc(N)nc2)CN1CC1CC1CNC(=O)c1cc2ccccc2[nH]1 (stereo partly drawn) [trans-AB05-27A] = 0.182
C[C@H]1CO[C@@H](c2ccc(N)nc2)CN1CC1CC1CNC(=O)c1cc2ccccc2[nH]1 (stereo partly drawn) [cis-FOB01-59B] = 0.435
CCCN1CC(c2ccc(N)nc2)OC[C@@H]1C (stereo partly drawn) [AB03-02, reference compound] = 9.41
C[C@H]1CO[C@H](c2ccc(N)nc2)CN1CC1CC1CNC(=O)c1cc2ccccc2[nH]1 (stereo partly drawn) [cis-FOB01-60B] = 0.235

Now for a further compound.
The measured D2R/D3R associated with CCCN1CCO[C@@H]2c3cc(O)ccc3OC[C@H]21 [(+)-PD128,907, reference compound] reads 12.1

----------
target or system: human D2LR (Homo sapiens (Human))
measurement protocol: Radioligand competition binding vs. [3H]-(R)-(+)-7-OH-DPAT, hD2R
measurement setup: vs. [3H]-(R)-(+)-7-OH-DPAT; HEK293 cells stably expressing hD2R; listed as AB05-27A; read-out: D2R Ki ± SEM
quantity: Ki (nM)
Quick reminder: number only, in nM, skip the unit.

Ki value, target or system human D2LR (Homo sapiens (Human)), for C[C@H]1CO[C@@H](c2ccc(N)nc2)CN1CC1CC1CNC(=O)c1cc2ccccc2[nH]1 (stereo partly drawn) [trans-AB05-27A] : 216

Data origin, for the record: patent US12479838B2
